- System: ATP;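 also: ATP exposure 15 min at 22 °C before imaging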
- METHOD: switch fluorescence ratio, 500 uM ATP over buffer (Cy3 cluster intensity, sum of 5 cycles each) (fold (ratio)); higher = stronger signal-on switching upon ATP binding; sequences stand for … in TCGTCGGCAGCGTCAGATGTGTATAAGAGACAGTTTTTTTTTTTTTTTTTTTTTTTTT…TC
- MEASUREMENT CONTEXT: aptamer strand: ATP DNA aptamer (quencher-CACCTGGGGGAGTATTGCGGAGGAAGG + anchor), 100 nM annealed; ATP concentration: 500 uM
Returns one of Yes or No; Yes when switch fluorescence ratio is >= 1.

[[record]]
sequence_input = "AGTTTTGGCA"
assay_system = "ATP"
assigned_label = "Yes"


Q. Check if switch fluorescence ratio >= 1 (inclusive). Item: AGAGAGGGCG
A. No

###

- Test system: ATP;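 also: ATP exposure 15 min at 22 °C before imaging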
- METHOD: switch fluorescence ratio, 500 uM ATP over buffer (Cy3 cluster intensity, sum of 5 cycles each) (fold (ratio)); higher = stronger signal-on switching upon ATP binding; sequences stand for … in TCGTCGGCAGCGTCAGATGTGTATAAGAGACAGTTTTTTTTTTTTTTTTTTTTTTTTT…TC
- MEASUREMENT CONTEXT: aptamer strand: ATP DNA aptamer (quencher-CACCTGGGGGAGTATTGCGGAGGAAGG + anchor), 100 nM annealed; ATP concentration: 500 uM
Listing of recorded switch fluorescence ratio by entry.
Lab note: write the figure by itself, no unit.

Q. Using the record for CAAACCAGGA , report its switch fluorescence ratio.
A. 1.09

Q. What do you have for TACAGGTCAT ?
A. 1

Q. What do you have for ATTGGCTAGG ?
A. 0.999

Q. What do you have for CTGAGGGAGC ?
A. 1.09

Q. What do you have for CGGAGTACAG ?
A. 1.09

Q. What do you have for AAGGTATCGG ?
A. 0.987

Q. What do you have for TAAATTTTTA ?
A. 0.986

###

- Tested on: ATP;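 also: ATP exposure 15 min at 22 °C before imaging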
- METHOD: switch fluorescence ratio, 500 uM ATP over buffer (Cy3 cluster intensity, sum of 5 cycles each) (fold (ratio)); higher = stronger signal-on switching upon ATP binding; sequences stand for … in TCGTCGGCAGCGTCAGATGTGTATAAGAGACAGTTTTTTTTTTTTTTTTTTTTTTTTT…TC
- MEASUREMENT CONTEXT: aptamer strand: ATP DNA aptamer (quencher-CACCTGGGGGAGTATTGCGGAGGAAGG + anchor), 100 nM annealed; ATP concentration: 500 uM
Listing of recorded switch fluorescence ratio by entry.

Q. Quick check: switch fluorescence ratio on ATP, item GATGACTTTT ?
A. 1

Q. What do you have for TTTGGCCCTT ?
A. 1.02

Q. What do you have for TTAGGGAAAA ?
A. 0.983

Q. What do you have for TTAATGGGGC ?
A. 1.01

Q. What do you have for ATTATTGATA ?
A. 0.997

Q. What do you have for AACGTGGTTT ?
A. 1.01

###

- System: ATP;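 also: ATP exposure 15 min at 22 °C before imaging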
- METHOD: switch fluorescence ratio, 500 uM ATP over buffer (Cy3 cluster intensity, sum of 5 cycles each) (fold (ratio)); higher = stronger signal-on switching upon ATP binding; sequences stand for … in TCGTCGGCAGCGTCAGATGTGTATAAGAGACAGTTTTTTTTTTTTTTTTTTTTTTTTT…TC
- MEASUREMENT CONTEXT: aptamer strand: ATP DNA aptamer (quencher-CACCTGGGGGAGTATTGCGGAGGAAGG + anchor), 100 nM annealed; ATP concentration: 500 uM
Listing of recorded switch fluorescence ratio by entry.
Lab note: write the figure by itself, no unit.

Example cases with answers are listed next.
[[record]]
sequence_input = "GAAGCGCGTC"
observable = "switch fluorescence ratio"
data_value = 0.998

[[record]]
sequence_input = "GAAATCGTTT"
observable = "switch fluorescence ratio"
data_value = 0.995


Q. Using the record for ACCCGGGGTC , report its switch fluorescence ratio.
A. 1
